- procedureText: Cmax in C57Bl/6 mouse at 5 mg/kg, iv
- Assay type: ADME, organism-based
- Design: dose 5 mg/kg, route intravenous
- reportedConditions: in vivo
parameter: Cmax
Number first, unit second: that is the form wanted.

Lab book: Cmax of `Clc1ccc2c(Nc3ccc4oc(NCCCN5CCCCC5)nc4c3)ccnc2c1` noted as 2740 nM
